These entries and their values trace back to patent US20160362487A1.

Molecular target: T1, cynomolgus monkey IL-33 expressed with a C-terminal hexahistidine tag (cynomolgus monkey)
T1 construct: also called MfIL-33-6His; Mf-IL-33-6His
T1 chain: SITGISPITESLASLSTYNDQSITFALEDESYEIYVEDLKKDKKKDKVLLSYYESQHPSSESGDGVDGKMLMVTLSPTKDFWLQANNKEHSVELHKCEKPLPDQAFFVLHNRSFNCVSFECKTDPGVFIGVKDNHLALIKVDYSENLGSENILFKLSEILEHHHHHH
Assay: SPR 25C, pH6.0 chase, mAb captured
MEASURE_NAME: koff (s⁻¹)
Give the value, in units of s⁻¹, as a plain number.

BINDER	koff, s⁻¹
H4H9672P (antibody, human IgG4, V domains shown, Human IgG4 Fc (H4H)) VH: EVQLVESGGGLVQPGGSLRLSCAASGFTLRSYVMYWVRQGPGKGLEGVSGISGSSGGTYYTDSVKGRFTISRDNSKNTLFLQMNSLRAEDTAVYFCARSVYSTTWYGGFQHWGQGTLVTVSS VL: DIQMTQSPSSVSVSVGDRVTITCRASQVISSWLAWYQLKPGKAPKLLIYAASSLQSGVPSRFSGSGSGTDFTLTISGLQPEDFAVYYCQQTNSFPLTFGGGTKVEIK	0.00267
H1M9559N (antibody, mouse IgG1, V domains shown, Human variable domains, mouse IgG1 Fc (H1M)) VH: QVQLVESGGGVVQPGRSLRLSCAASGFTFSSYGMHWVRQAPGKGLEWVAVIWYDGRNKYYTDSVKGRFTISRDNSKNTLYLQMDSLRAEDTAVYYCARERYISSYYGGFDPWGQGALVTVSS VL: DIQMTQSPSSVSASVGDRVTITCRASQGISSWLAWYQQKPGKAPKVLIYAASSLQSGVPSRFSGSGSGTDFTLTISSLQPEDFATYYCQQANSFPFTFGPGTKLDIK	0.00152
H4H9629P (antibody, human IgG4, V domains shown, Human IgG4 Fc (H4H)) VH: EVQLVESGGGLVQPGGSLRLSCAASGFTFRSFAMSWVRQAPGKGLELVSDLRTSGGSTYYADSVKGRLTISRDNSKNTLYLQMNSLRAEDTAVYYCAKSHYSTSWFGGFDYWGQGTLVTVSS VL: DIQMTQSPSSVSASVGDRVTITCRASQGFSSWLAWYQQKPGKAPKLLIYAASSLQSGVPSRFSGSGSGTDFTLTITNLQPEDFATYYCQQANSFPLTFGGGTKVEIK	0.0358
H1M9566N (antibody, mouse IgG1, V domains shown, Human variable domains, mouse IgG1 Fc (H1M)) VH: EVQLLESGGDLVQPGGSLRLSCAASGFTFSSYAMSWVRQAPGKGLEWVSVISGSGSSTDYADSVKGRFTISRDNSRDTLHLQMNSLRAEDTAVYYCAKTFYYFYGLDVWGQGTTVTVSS VL: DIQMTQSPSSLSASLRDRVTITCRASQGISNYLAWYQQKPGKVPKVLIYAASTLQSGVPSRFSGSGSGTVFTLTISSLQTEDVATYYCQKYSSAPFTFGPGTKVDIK	0.000126

Then this binder:
[Q] Value lookup for koff; key = H4H9676P (antibody, human IgG4, V domains shown, Human IgG4 Fc (H4H)) VH: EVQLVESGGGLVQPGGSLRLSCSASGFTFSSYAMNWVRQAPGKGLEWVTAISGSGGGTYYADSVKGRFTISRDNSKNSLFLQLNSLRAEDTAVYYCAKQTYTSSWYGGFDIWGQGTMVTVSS VL: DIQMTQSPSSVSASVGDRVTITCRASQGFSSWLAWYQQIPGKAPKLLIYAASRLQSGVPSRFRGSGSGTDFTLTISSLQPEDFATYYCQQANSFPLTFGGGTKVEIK
[A] 0.00145
